Quick reference for Papp, A-to-B Rep. 2 among some molecules
Test system: Caco-2 monolayers
Experiment: Bi-directional permeability, CACO-2
Type: in vitro ADME
Settings: Caco-2

CCc1c(OC)cccc1C(=O)NN(C(=O)c1ccccc1[S+](C)[O-])C(C)(C)C (stereo not shown) [RG-115199]	30.2 10^−6 cm/s

So, CCc1c(C(=O)NN(C(=O)c2ccc(F)c(C(F)(F)F)c2)C(C)(C)C)ccc2c1OCCO2 [RG-115280] ? Its Papp, A-to-B Rep. 2 was 1.30 10^−6 cm/s

So, COc1cnccc1C(=O)N(NC(=O)c1cccc(O)c1C)C(C)(C)C [RG-115595] ? Its Papp, A-to-B Rep. 2 was 18.9 10^−6 cm/s

Where do these numbers come from? They come from patent US9102648B1.
